SYSTEM: BCL-XL (Homo sapiens (Human))
Sequence (Q07817 whole entry): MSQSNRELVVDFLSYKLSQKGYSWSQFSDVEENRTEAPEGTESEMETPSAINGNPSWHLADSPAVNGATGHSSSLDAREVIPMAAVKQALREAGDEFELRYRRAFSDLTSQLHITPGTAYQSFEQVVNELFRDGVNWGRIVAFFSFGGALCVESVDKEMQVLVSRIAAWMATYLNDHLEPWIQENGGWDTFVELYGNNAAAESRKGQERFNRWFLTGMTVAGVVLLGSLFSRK
ASSAY READOUT: IC50 (nM)
Numbers only, in nM.

[Q] Requested field: IC50. Item: "O=c1c(O)cccc2cc(O)c(O)c(O)c12"
[A] 2200

----------
SYSTEM: GST-BCL-XL ΔTM protein (Homo sapiens (Human))
Sequence (Q07817 1-209): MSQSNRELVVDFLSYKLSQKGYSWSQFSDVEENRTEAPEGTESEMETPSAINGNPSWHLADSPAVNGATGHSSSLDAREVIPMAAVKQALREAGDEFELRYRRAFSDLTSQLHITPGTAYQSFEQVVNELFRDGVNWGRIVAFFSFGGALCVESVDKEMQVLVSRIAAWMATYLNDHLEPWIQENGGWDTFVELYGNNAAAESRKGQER
EXPERIMENT: Competitive fluorescence polarization assay (FITC-Bak BH3 peptide)
Assay type: binding
EXPERIMENTAL CONDITIONS: read-out: FPA IC50 (BCL-XL)
Method: For competitive binding assays, 100 nM GST-BCL-XL ΔTM protein was preincubated with the tested compound at varying concentrations in 47.5 μL PBS (pH=7.4) in 96-well black plates at room temperature for 10 min, then 2.5 μL of 100 nM FITC-labeled Bak BH3 peptide was added to produce a final volume of 50 μL. […] IC50 was determined by fitting the experimental data to a sigmoidal dose-response nonlinear regression model (SigmaPlot 10.0.1, Systat Software, Inc., San Jose, Calif., USA). […]
ASSAY READOUT: IC50 (nM)
Give bare numbers, in nM.

| MOLECULE | UNITS LABEL | QUANTITATIVE READOUT |
| --- | --- | --- |
| Cc1cc2c(C(=O)c3nc4ccccc4s3)c(O)c(O)cc2c(O)c1-c1c(C)cc2c(C(=O)c3nc4ccccc4s3)c(O)c(O)cc2c1O [Compound XVII] | nM | 390 |

Okay, next one:
[Q] Requested field: IC50. Item: Cc1cc2c(C(C)C)c(O)c(O)c(C=O)c2c(O)c1-c1c(C)cc2c(C(C)C)c(O)c(O)c(C=O)c2c1O [Gossypol, gossypol]
[A] 2720

----------
SYSTEM: UniProt:P10415
Sequence (P10415 whole entry): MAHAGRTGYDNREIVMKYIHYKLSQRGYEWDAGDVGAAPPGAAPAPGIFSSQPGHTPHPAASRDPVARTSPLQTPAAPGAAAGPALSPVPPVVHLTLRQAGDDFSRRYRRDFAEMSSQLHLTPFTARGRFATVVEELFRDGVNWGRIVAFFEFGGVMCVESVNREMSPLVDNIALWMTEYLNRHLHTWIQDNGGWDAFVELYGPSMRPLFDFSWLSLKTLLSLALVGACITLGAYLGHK
EXPERIMENT: Fluorescence polarization assay (FITC-Bim BH3 peptide)
EXPERIMENTAL CONDITIONS: read-out: EC50 FPA BCL-2
ASSAY READOUT: pEC50
One number for each entry, as −log10 of the molar value.

| STRUCTURE STRING | QUANTITATIVE READOUT |
| --- | --- |
| Cc1ccc(CC(=O)c2c(O)c(O)cc3c(O)c(-c4c(C)cc5c(C(=O)Cc6ccc(C)cc6)c(O)c(O)cc5c4O)c(C)cc23)cc1 | 6.11 |
| Cc1cc2c(C(=O)c3cccc4ccccc34)c(O)c(O)cc2c(O)c1-c1c(C)cc2c(C(=O)c3cccc4ccccc34)c(O)c(O)cc2c1O | 5.72 |
| Cc1cc2c(C(=O)Cc3ccccc3)c(O)c(O)cc2c(O)c1-c1c(C)cc2c(C(=O)Cc3ccccc3)c(O)c(O)cc2c1O | 6.44 |

Okay, next one:
[Q] For the record "Cc1cc2c(C(C)C)c(O)c(O)cc2c(O)c1-c1c(C)cc2c(C(C)C)c(O)c(O)cc2c1O" , what value of pEC50 is listed for UniProt:P10415?
[A] 5.55

----------
SYSTEM: UniProtKB Q07817
EXPERIMENT: 1D 1H-NMR binding assay; further: key: +++: Very Active; ++: Active; +: Mild; −: Weak
EXPERIMENTAL CONDITIONS: 4-point-rating scale; compounds 200 μM, BCL-XL 25 μM
ASSAY READOUT: 1D 1H-NMR Binding Assay (BCL-XL)

Solved entries (count: 6):
| STRUCTURE STRING | RESULT |
| --- | --- |
| Cc1cc2cc(O)c(O)cc2c(O)c1-c1c(C)cc2cc(O)c(O)cc2c1O | + |
| Cc1cc2c(C(=O)C(C)C)c(O)c(O)cc2c(O)c1-c1c(C)cc2c(C(=O)C(C)C)c(O)c(O)cc2c1O | ++ |
| Cc1cc2c(C(=O)c3ccc(C(C)(C)C)cc3)c(O)c(O)cc2c(O)c1-c1c(C)cc2c(C(=O)c3ccc(C(C)(C)C)cc3)c(O)c(O)cc2c1O | − |
| Cc1cc2c(C(=O)C3CCCC3)c(O)c(O)cc2c(O)c1-c1c(C)cc2c(C(=O)C3CCCC3)c(O)c(O)cc2c1O | + |
| Cc1cc2c(C(=O)c3ccc(C(F)(F)F)cc3)c(O)c(O)cc2c(O)c1-c1c(C)cc2c(C(=O)c3ccc(C(F)(F)F)cc3)c(O)c(O)cc2c1O | + |
| Cc1cc2c(C(=O)c3ccc(-c4ccccc4)cc3)c(O)c(O)cc2c(O)c1-c1c(C)cc2c(C(=O)c3ccc(-c4ccccc4)cc3)c(O)c(O)cc2c1O | − |

Okay, next one:
[Q] For the record "Cc1cc2c(C(=O)c3cccc4ccccc34)c(O)c(O)cc2c(O)c1-c1c(C)cc2c(C(=O)c3cccc4ccccc34)c(O)c(O)cc2c1O" , what value of 1D 1H-NMR Binding Assay (BCL-XL) is listed for UniProtKB Q07817?
[A] +
